FYI, the data here is from patent US11135193B2.

test system: EL-4 cells; conditions: mouse, 24 h, 20 μg/ml
MEASUREMENT TYPE: EL-4 cell viability (%, mean ± SD) (%)
Quick note: give the figure in %, leave out the unit.

Please list EL-4 cell viability (%, mean ± SD) recorded for the compound CCCCCCCC/C=C\CCCCCCCC(=O)OC(COC(C)=O)COC(=O)CCCCCCCCCCCCCCC (stereo not drawn) [POAG, 1-palmitoyl-2-oleoyl-3-acetylglycerol] 98.90

Please list EL-4 cell viability (%, mean ± SD) recorded for the compound CCCCCCCC/C=C\CCCCCCCC(=O)OCC(COC(C)=O)OC(=O)CCCCCCCCCCCCCCCCC (stereo not drawn) [OSAG, 1-oleoyl-2-stearoyl-3-acetylglycerol] 100.22

Please list EL-4 cell viability (%, mean ± SD) recorded for the compound CCCCCCCC/C=C\CCCCCCCC(=O)OCC(COC(C)=O)OC(=O)CCCCCCCCCCCCCCC (stereo not drawn) [OPAG, 1-oleoyl-2-palmitoyl-3-acetylglycerol] 99.56

Please list EL-4 cell viability (%, mean ± SD) recorded for the compound CCCCCCCCCCCCCCCC(=O)OCC(COC(C)=O)OC(=O)CCCCCCCCCCCCCCC (stereo not drawn) [PPAG, 1-palmitoyl-2-palmitoyl-3-acetylglycerol] 96.59

Please list EL-4 cell viability (%, mean ± SD) recorded for the compound CCCCCCCCCCCCCCCCCC(=O)OC(COC(C)=O)COC(=O)CCCCCCCCCCCCCCC (stereo not drawn) [PSAG, 1-palmitoyl-2-stearoyl-3-acetylglycerol] 103.30

Please list EL-4 cell viability (%, mean ± SD) recorded for the compound CCCCC/C=C\C/C=C\CCCCCCCC(=O)OC(COC(C)=O)COC(=O)CCCCCCCCCCCCCCC (stereo not drawn) [EC-18, 1-palmitoyl-2-linoleoyl-3-acetylglycerol] 91.82

====

tested on: EL-4 cells; details: mouse, 24 h, 10 μg/ml
MEASUREMENT TYPE: EL-4 cell viability (%, mean ± SD)

Please list EL-4 cell viability (%, mean ± SD) recorded for the compound CCCCCCCCCCCCCCCCCC(=O)OC(COC(C)=O)COC(=O)CCCCCCCCCCCCCCC (stereo not drawn) 100.66 ± 1.25%

Please list EL-4 cell viability (%, mean ± SD) recorded for the compound CCCCCCCC/C=C\CCCCCCCC(=O)OCC(COC(C)=O)OC(=O)CCCCCCCCCCCCCCCCC (stereo not drawn) 100.98 ± 2.37%

Please list EL-4 cell viability (%, mean ± SD) recorded for the compound CCCCCCCC/C=C\CCCCCCCC(=O)OC(COC(C)=O)COC(=O)CCCCCCCCCCCCCCC (stereo not drawn) 106:39 ±1.19%

Please list EL-4 cell viability (%, mean ± SD) recorded for the compound CCCCCCCCCCCCCCCC(=O)OCC(COC(C)=O)OC(=O)CCCCCCCCCCCCCCC (stereo not drawn) 105.84 ± 1.38%

Please list EL-4 cell viability (%, mean ± SD) recorded for the compound CCCCC/C=C\C/C=C\CCCCCCCC(=O)OC(COC(C)=O)COC(=O)CCCCCCCCCCCCCCC (stereo not drawn) 97.54 ± 8.05%

Please list EL-4 cell viability (%, mean ± SD) recorded for the compound CCCCCCCC/C=C\CCCCCCCC(=O)OCC(COC(C)=O)OC(=O)CCCCCCCCCCCCCCC (stereo not drawn) 98.91 ± 1.68%

====

Would you kindly list EL-4 cell viability (%, mean ± SD) for each of these compounds?
test system: EL-4 cells; conditions: mouse, 24 h, 5 μg/ml
Quick note: give the figure in %, leave out the unit.

# return EL-4 cell viability (%, mean ± SD) of CCCCCCCCCCCCCCCC(=O)OCC(COC(C)=O)OC(=O)CCCCCCCCCCCCCCC (stereo not drawn) [PPAG, 1-palmitoyl-2-palmitoyl-3-acetylglycerol] (system: EL-4 cells) 106.28

# return EL-4 cell viability (%, mean ± SD) of CCCCCCCC/C=C\CCCCCCCC(=O)OC(COC(C)=O)COC(=O)CCCCCCCCCCCCCCC (stereo not drawn) [POAG, 1-palmitoyl-2-oleoyl-3-acetylglycerol] (system: EL-4 cells) 106.94

# return EL-4 cell viability (%, mean ± SD) of CCCCCCCCCCCCCCCCCC(=O)OC(COC(C)=O)COC(=O)CCCCCCCCCCCCCCC (stereo not drawn) [PSAG, 1-palmitoyl-2-stearoyl-3-acetylglycerol] (system: EL-4 cells) 98.46

# return EL-4 cell viability (%, mean ± SD) of CCCCC/C=C\C/C=C\CCCCCCCC(=O)OC(COC(C)=O)COC(=O)CCCCCCCCCCCCCCC (stereo not drawn) [EC-18, 1-palmitoyl-2-linoleoyl-3-acetylglycerol] (system: EL-4 cells) 101.94

# return EL-4 cell viability (%, mean ± SD) of CCCCCCCC/C=C\CCCCCCCC(=O)OCC(COC(C)=O)OC(=O)CCCCCCCCCCCCCCCCC (stereo not drawn) [OSAG, 1-oleoyl-2-stearoyl-3-acetylglycerol] (system: EL-4 cells) 102.62

# return EL-4 cell viability (%, mean ± SD) of CCCCCCCC/C=C\CCCCCCCC(=O)OCC(COC(C)=O)OC(=O)CCCCCCCCCCCCCCC (stereo not drawn) [OPAG, 1-oleoyl-2-palmitoyl-3-acetylglycerol] (system: EL-4 cells) 98.04
